# System: MDA-MB-231 breast
# assay.overview: NCI tumour cell line growth inhibition, 48 h
metric.name: GI50

>>> print(df.to_string())
                                   compound  value_observed
0  COc1ccc2c(c1)C(=O)c1c-2c(OCCN(C)C)nc2cc(OC)ccc12         1.42 µM
1  N=C(N)c1ccc(-c2ccc(-c3cncc4ccccc34)s2)cc1F          1.4 µM
2       O=[N+]([O-])c1cccc(/C=C/c2ccccn2)c1           23 µM
3  COc1cccc2c1C(=O)c1c(O)c3c(c(O)c1C2=O)C[C@@](O)(C(=O)CO)C[C@@H]3OC1CC(OC(C)=O)C(OC(C)=O)C(C)O1 (stereo not given in full)         2.89 µM
4           O=C(Nc1ccc(Cl)cc1F)c1cc(F)ccc1O        0.761 µM
5         COc1cccc2c1nc1cccc(OC)c1[n+]2[O-]         16.4 µM
6     CN(C)CCN1C(=O)c2cccc3c(N)ccc(c23)C1=O           16 µM
7  O=C(C[C@@]1(O)C(=O)Nc2c(Cl)ccc(Cl)c21)c1ccc(C2CC2)cc1        0.798 µM
8  Cc1cc(O)c(C2=NN(c3ccc(S(N)(=O)=O)cc3)C(c3ccccc3O)C2)cc1Cl (stereo not given)         1.91 µM
9      CCOC(=O)/C(=C/c1ccccc1)C(=O)c1ccccc1         3.06 µM
